molecular target: 5-hydroxytryptamine receptor 6 (Homo sapiens); assay: Antagonist activity at human recombinant 5HT6 receptor expressed in HeLa cells assessed as inhibition of 5HT-induced intracellular calcium level incubated for 15 mins prior to 5HT-induction measured after 1 hr by fluo-4-AM-based fluorimetry
Sequence (P50406 whole entry): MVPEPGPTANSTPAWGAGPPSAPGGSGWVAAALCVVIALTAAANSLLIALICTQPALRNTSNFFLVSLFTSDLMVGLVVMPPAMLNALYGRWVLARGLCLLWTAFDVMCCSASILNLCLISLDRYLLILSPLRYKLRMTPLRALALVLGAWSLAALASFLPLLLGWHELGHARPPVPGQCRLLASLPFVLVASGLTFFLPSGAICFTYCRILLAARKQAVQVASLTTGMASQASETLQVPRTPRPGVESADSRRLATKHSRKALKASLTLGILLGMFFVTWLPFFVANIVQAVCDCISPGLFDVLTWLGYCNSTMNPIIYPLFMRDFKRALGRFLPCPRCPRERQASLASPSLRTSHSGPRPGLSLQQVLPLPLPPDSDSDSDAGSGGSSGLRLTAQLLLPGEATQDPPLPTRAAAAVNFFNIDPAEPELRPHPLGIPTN
Entries and their measured pIC50 follow.
Note on units: pIC50 is unitless, being -log10 of a concentration expressed in mol/L.

# count of solved cases: 2
chem smiles	measurement
Cc1ccc(S(=O)(=O)Nc2ccc3snc(/N=C/N(C)C)c3c2)cc1	6.44
CN(C)/C=N/c1nsc2ccc(NS(=O)(=O)c3ccc4ccccc4c3)cc12	6.36

Consider the additional molecule presented here.
Returns the measured pIC50 for the input molecule. Input: `CN(C)/C=N/c1nsc2ccc(NS(=O)(=O)c3ccc(Cl)cc3)cc12` 5.44
